Numbers sourced from ChEMBL document CHEMBL4411307.

# measurement notes: Hemolytic activity in mouse RBC at […] ug/ml after 1 hr relative to control
# Assay type: ADME, cell-based, Erythrocyte
# test conditions: red blood cells (erythrocytes), at 15.6 µg/mL, read-out: Activity
Returns t if the recorded hemolysis at 1 h, 15.6 ug/ml is greater than or equal to 10%, and f otherwise.

| smiles record | class assignment |
| --- | --- |
| C(=N\Nc1ccccc1)/c1ccc(-c2cccc(/C=N/Nc3ccccc3)c2)cc1 | t |
| N=C(N)N/N=C/c1ccc(-c2cccc(/C=N/NC(=N)N)c2)cc1 | f |
| COc1ccc(N/N=C/c2ccc(-c3ccc(/C=N/Nc4ccc(OC)cc4)cc3)cc2)cc1 | f |
| Fc1ccc(N/N=C/c2ccc(-c3cccc(/C=N/Nc4ccc(F)cc4F)c3)cc2)c(F)c1 | t |
| C[C@@H](c1ncncc1F)[C@](O)(Cn1cncn1)c1ccc(F)cc1F | f |

Incoming: Would you say C(=N\Nc1ccccc1)/c1ccc(-c2ccc(/C=N/Nc3ccccc3)cc2)cc1 shows hemolysis at 1 h, 15.6 ug/ml at minimum 10%?
Outgoing: t
